tested on: NCI-H1651; assay: relative viability (nuclei count vs DMSO), 5 days (fraction); higher = more cells survive; settings: first compound 0.000632 µM
Answer each item with its documented relative viability.
Numbers only.

Molecule: CC(=O)O[C@@]12CO[C@@H]1C[C@H](O)[C@@]1(C)C(=O)[C@H](O)C3=C(C)[C@@H](OC(=O)[C@H](O)[C@@H](NC(=O)OC(C)(C)C)c4ccccc4)C[C@@](O)([C@@H](OC(=O)c4ccccc4)[C@H]21)C3(C)C [Docetaxel] + COc1cccc2cc(-c3nc([C@H]4CC[C@H](C(=O)O)CC4)n4ncnc(N)c34)[nH]c12 [OSI-027] (partner 0.5 µM)
System name: NCI-H1651
relative viability: 0.783
--
Molecule: CC(=O)O[C@@]12CO[C@@H]1C[C@H](O)[C@@]1(C)C(=O)[C@H](O)C3=C(C)[C@@H](OC(=O)[C@H](O)[C@@H](NC(=O)OC(C)(C)C)c4ccccc4)C[C@@](O)([C@@H](OC(=O)c4ccccc4)[C@H]21)C3(C)C [Docetaxel] + C[C@]1(O)C[C@@H](c2nc(-c3ccc4ccc(-c5ccccc5)nc4c3)c3c(N)nccn32)C1 [Linsitinib] (partner 1 µM)
System name: NCI-H1651
relative viability: 0.746

Pending molecule:
Requested read-out: relative viability. Entry: CC(=O)O[C@@]12CO[C@@H]1C[C@H](O)[C@@]1(C)C(=O)[C@H](O)C3=C(C)[C@@H](OC(=O)[C@H](O)[C@@H](NC(=O)OC(C)(C)C)c4ccccc4)C[C@@](O)([C@@H](OC(=O)c4ccccc4)[C@H]21)C3(C)C [Docetaxel] + COc1cc2c(Oc3ccc(NC(=O)C4(C(=O)Nc5ccc(F)cc5)CC4)cc3F)ccnc2cc1OCCCN1CCOCC1 [Foretinib] (partner 0.25 µM) 0.789

----------
Record form. Attribute: relative viability. Fill in for each entry.
test system: A549; test: relative viability (nuclei count vs DMSO), 5 days (fraction); higher = more cells survive; details: first compound 0.8 µM
Give bare numbers.

// known answers, use as guide
Compound: Cc1cnc(-c2cnc(NCCNc3ccc(C#N)cn3)nc2-c2ccc(Cl)cc2Cl)[nH]1 + N=C(N)NC(=N)NCCc1ccccc1 [Phenformin] (partner 250 µM)
System name: A549
relative viability: 0.151
//
Compound: O=c1[nH]c2ccccc2n1C1CCN(CCCC(c2ccc(F)cc2)c2ccc(F)cc2)CC1 [Pimozide] + O=C(c1cc(Cc2n[nH]c(=O)c3ccccc23)ccc1F)N1CCN(C(=O)C2CC2)CC1 [Olaparib] (partner 8 µM)
System name: A549
relative viability: 0.271
//
Compound: O=c1[nH]c2ccccc2n1C1CCN(CCCC(c2ccc(F)cc2)c2ccc(F)cc2)CC1 [Pimozide] + CC1(C)CCC(c2ccc(Cl)cc2)=C(CN2CCN(c3ccc(C(=O)NS(=O)(=O)c4ccc(N[C@H](CCN5CCOCC5)CSc5ccccc5)c(S(=O)(=O)C(F)(F)F)c4)cc3)CC2)C1 [Navitoclax] (partner 0.5 µM)
System name: A549
relative viability: 1.15
//
Compound: O=c1[nH]c2ccccc2n1C1CCN(CCCC(c2ccc(F)cc2)c2ccc(F)cc2)CC1 [Pimozide] + COc1cc2c(Oc3ccc(NC(=O)C4(C(=O)Nc5ccc(F)cc5)CC4)cc3F)ccnc2cc1OCCCN1CCOCC1 [Foretinib] (partner 0.25 µM)
System name: A549
relative viability: 1.04
//
Compound: O=c1[nH]c2ccccc2n1C1CCN(CCCC(c2ccc(F)cc2)c2ccc(F)cc2)CC1 [Pimozide] + CS(=O)(=O)CCNCc1ccc(-c2ccc3ncnc(Nc4ccc(OCc5cccc(F)c5)c(Cl)c4)c3c2)o1 [Lapatinib] (partner 2 µM)
System name: A549
relative viability: 0.976

Attention now turns to another entry.
Given the entry O=c1[nH]c2ccccc2n1C1CCN(CCCC(c2ccc(F)cc2)c2ccc(F)cc2)CC1 [Pimozide] + C[C@@H](Oc1cc(-c2cnn(C3CCNCC3)c2)cnc1N)c1c(Cl)ccc(F)c1Cl [Crizotinib] (partner 1 µM) , what relative viability was observed with A549? 0.643

----------
test system: NCI-H1395; assay: relative viability (nuclei count vs DMSO), 5 days (fraction); higher = more cells survive; conditions: first compound 0.8 µM
Property: relative viability
Give bare numbers.

State the recorded relative viability for every item in the following list.
1. Cc1cnc(-c2cnc(NCCNc3ccc(C#N)cn3)nc2-c2ccc(Cl)cc2Cl)[nH]1 + COc1cccc2cc(-c3nc([C@H]4CC[C@H](C(=O)O)CC4)n4ncnc(N)c34)[nH]c12 [OSI-027] (partner 0.5 µM)
2. O=c1[nH]c2ccccc2n1C1CCN(CCCC(c2ccc(F)cc2)c2ccc(F)cc2)CC1 [Pimozide] + CC(=O)c1c(C)c2cnc(Nc3ccc(N4CCNCC4)cn3)nc2n(C2CCCC2)c1=O [Palbociclib] (partner 0.5 µM)
3. Cc1cnc(-c2cnc(NCCNc3ccc(C#N)cn3)nc2-c2ccc(Cl)cc2Cl)[nH]1 + CCNC(=O)c1noc(-c2cc(C(C)C)c(O)cc2O)c1-c1ccc(CN2CCOCC2)cc1 [Luminespib] (partner 0.01 µM)

[0.602, 0.538, 0.65]

Entry under review: O=c1[nH]c2ccccc2n1C1CCN(CCCC(c2ccc(F)cc2)c2ccc(F)cc2)CC1 [Pimozide] + Nc1nc2[nH]cc(CCc3ccc(C(=O)N[C@@H](CCC(=O)O)C(=O)O)cc3)c2c(=O)[nH]1 [Pemetrexed] (partner 0.2 µM) . Reported relative viability? 0.822

----------
system: LC-2-ad; experiment: relative viability (nuclei count vs DMSO), 5 days (fraction); higher = more cells survive; conditions: first compound 8 µM
Please respond with reported relative viability for every item in the list.
Numbers only.

Use these answered entries as a reference point.
Molecule: O=c1[nH]c2ccccc2n1C1CCN(CCCC(c2ccc(F)cc2)c2ccc(F)cc2)CC1 [Pimozide] + CS(=O)(=O)CCNCc1ccc(-c2ccc3ncnc(Nc4ccc(OCc5cccc(F)c5)c(Cl)c4)c3c2)o1 [Lapatinib] (partner 2 µM)
relative viability: 0.6
//
Molecule: O=c1[nH]c2ccccc2n1C1CCN(CCCC(c2ccc(F)cc2)c2ccc(F)cc2)CC1 [Pimozide] + COc1cccc2cc(-c3nc([C@H]4CC[C@H](C(=O)O)CC4)n4ncnc(N)c34)[nH]c12 [OSI-027] (partner 0.5 µM)
relative viability: 0.635
//
Molecule: O=c1[nH]c2ccccc2n1C1CCN(CCCC(c2ccc(F)cc2)c2ccc(F)cc2)CC1 [Pimozide] + Nc1nc2[nH]cc(CCc3ccc(C(=O)N[C@@H](CCC(=O)O)C(=O)O)cc3)c2c(=O)[nH]1 [Pemetrexed] (partner 0.2 µM)
relative viability: 0.254
//
Molecule: O=c1[nH]c2ccccc2n1C1CCN(CCCC(c2ccc(F)cc2)c2ccc(F)cc2)CC1 [Pimozide] + C[C@@H](Oc1cc(-c2cnn(C3CCNCC3)c2)cnc1N)c1c(Cl)ccc(F)c1Cl [Crizotinib] (partner 1 µM)
relative viability: 0.479
//
Molecule: O=c1[nH]c2ccccc2n1C1CCN(CCCC(c2ccc(F)cc2)c2ccc(F)cc2)CC1 [Pimozide] + N=C(N)NC(=N)NCCc1ccccc1 [Phenformin] (partner 250 µM)
relative viability: 0.605

Respectfully, I request relative viability for each entry included below.
1. O=c1[nH]c2ccccc2n1C1CCN(CCCC(c2ccc(F)cc2)c2ccc(F)cc2)CC1 [Pimozide] + CC1(C)CCC(c2ccc(Cl)cc2)=C(CN2CCN(c3ccc(C(=O)NS(=O)(=O)c4ccc(N[C@H](CCN5CCOCC5)CSc5ccccc5)c(S(=O)(=O)C(F)(F)F)c4)cc3)CC2)C1 [Navitoclax] (partner 0.5 µM)
2. O=c1[nH]c2ccccc2n1C1CCN(CCCC(c2ccc(F)cc2)c2ccc(F)cc2)CC1 [Pimozide] + Cc1cc(Nc2cc(N3CCN(C)CC3)nc(Sc3ccc(NC(=O)C4CC4)cc3)n2)n[nH]1 [Tozasertib] (partner 0.1 µM)
3. O=c1[nH]c2ccccc2n1C1CCN(CCCC(c2ccc(F)cc2)c2ccc(F)cc2)CC1 [Pimozide] + Cc1nc(Nc2ncc(C(=O)Nc3c(C)cccc3Cl)s2)cc(N2CCN(CCO)CC2)n1 [Dasatinib] (partner 0.075 µM)

0.392
0.35
0.493

Lookup: relative viability / LC-2-ad / O=c1[nH]c2ccccc2n1C1CCN(CCCC(c2ccc(F)cc2)c2ccc(F)cc2)CC1 [Pimozide] + CC(C)C[C@H](NC(=O)[C@H](Cc1ccccc1)NC(=O)c1cnccn1)B(O)O [Bortezomib] (partner 0.002 µM) 0.996

----------
system: NCI-H358; experiment: relative viability (nuclei count vs DMSO), 5 days (fraction); higher = more cells survive; details: first compound 4 µM
Please respond with reported relative viability for every item in the list.

Compound: Cc1sc2c(c1C)C(c1ccc(Cl)cc1)=N[C@@H](CC(=O)OC(C)(C)C)c1nnc(C)n1-2 [JQ1] + Nc1nc2[nH]cc(CCc3ccc(C(=O)N[C@@H](CCC(=O)O)C(=O)O)cc3)c2c(=O)[nH]1 [Pemetrexed] (partner 0.2 µM)
relative viability: 0.153

Compound: Cc1sc2c(c1C)C(c1ccc(Cl)cc1)=N[C@@H](CC(=O)OC(C)(C)C)c1nnc(C)n1-2 [JQ1] + CCNC(=O)c1noc(-c2cc(C(C)C)c(O)cc2O)c1-c1ccc(CN2CCOCC2)cc1 [Luminespib] (partner 0.01 µM)
relative viability: 0.27

Compound: Cc1sc2c(c1C)C(c1ccc(Cl)cc1)=N[C@@H](CC(=O)OC(C)(C)C)c1nnc(C)n1-2 [JQ1] + CS(=O)(=O)N1CCN(Cc2cc3nc(-c4cccc5[nH]ncc45)nc(N4CCOCC4)c3s2)CC1 [Pictilisib] (partner 1 µM)
relative viability: 0.336

Compound: Cc1sc2c(c1C)C(c1ccc(Cl)cc1)=N[C@@H](CC(=O)OC(C)(C)C)c1nnc(C)n1-2 [JQ1] + Cc1cc(Nc2cc(N3CCN(C)CC3)nc(Sc3ccc(NC(=O)C4CC4)cc3)n2)n[nH]1 [Tozasertib] (partner 0.1 µM)
relative viability: 0.0861

# get_value(readout='relative viability', item= Cc1sc2c(c1C)C(c1ccc(Cl)cc1)=N[C@@H](CC(=O)OC(C)(C)C)c1nnc(C)n1-2 [JQ1] + N=C(N)NC(=N)NCCc1ccccc1 [Phenformin] (partner 250 µM) ) 0.161

All figures here come from the supplement of paper PMC10307832.
